SUBJECT_OF_TEST: recombinant RORγ Ligand Binding Domain (LBD) protein (Homo sapiens (Human), UniProt P51449)
Sequence (P51449 269-508): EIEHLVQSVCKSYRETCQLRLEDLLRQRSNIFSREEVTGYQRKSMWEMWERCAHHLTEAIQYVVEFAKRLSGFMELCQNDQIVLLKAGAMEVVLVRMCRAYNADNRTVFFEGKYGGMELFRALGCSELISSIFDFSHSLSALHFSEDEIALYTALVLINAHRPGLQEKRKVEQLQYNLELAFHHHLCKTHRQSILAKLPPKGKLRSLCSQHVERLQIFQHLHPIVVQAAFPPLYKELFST
EXPERIMENTAL_PROTOCOL: Radio-Ligand RORγ Binding Assay (Assay 1)
CONDITION_NOTES: competition with 25-hydroxy [26,27-3H]-cholesterol, SPA; Table 9; read-out: RORγ Binding Ki Range*
Ki values, listed per item

Reference set (2 entries):
>>> assay_result("CCS(=O)(=O)c1ccc(CC(=O)Nc2nc3c(s2)CN(C[C@H]2CC[C@@H](C(=O)OC)CC2)[C@H]3C(C)C)cc1 (single isomer, unassigned)")
"< 100 nM"
>>> assay_result("CC(C)[C@@H]1c2nc(NC(=O)Cc3ccc(S(C)(=O)=O)cc3)sc2CN1Cc1ccc(Br)cc1")
"100 to 1000 nM"

Here's the next entry for you.
Would you kindly share the measured Ki for CCS(=O)(=O)c1ccc(CC(=O)Nc2nc3c(s2)CN(CC2CN(CC(F)(F)F)C2)[C@H]3C(C)C)cc1 ?
< 100 nM

====

SUBJECT_OF_TEST: full-length RORγt in Jurkat cells (Homo sapiens (Human))
Sequence (P51449 other isoform, or with tags, fused parts or gaps): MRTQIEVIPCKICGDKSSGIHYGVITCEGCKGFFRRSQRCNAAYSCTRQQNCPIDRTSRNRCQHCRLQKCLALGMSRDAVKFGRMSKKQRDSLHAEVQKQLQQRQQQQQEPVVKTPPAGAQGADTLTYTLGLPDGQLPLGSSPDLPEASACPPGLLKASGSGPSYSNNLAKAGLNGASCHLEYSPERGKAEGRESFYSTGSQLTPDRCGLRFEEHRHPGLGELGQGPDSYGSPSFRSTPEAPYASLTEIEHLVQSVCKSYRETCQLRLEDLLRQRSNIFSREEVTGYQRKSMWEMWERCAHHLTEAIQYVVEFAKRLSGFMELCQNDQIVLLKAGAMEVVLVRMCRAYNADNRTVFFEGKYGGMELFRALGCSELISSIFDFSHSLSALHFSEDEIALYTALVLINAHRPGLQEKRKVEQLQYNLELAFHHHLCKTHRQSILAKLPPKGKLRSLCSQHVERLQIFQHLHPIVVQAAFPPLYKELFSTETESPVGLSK
EXPERIMENTAL_PROTOCOL: RORγt 5xRORE Assay in Jurkat Cells (Assay 2)
Format: cell-based
CONDITION_NOTES: Nanoluc luciferase reporter, 16-18 hrs, Table 9, read-out: RORγt5X IC50 Range*
IC50 values, listed per item

Reference set (5 entries):
>>> assay_result("CCS(=O)(=O)c1ccc(CC(=O)Nc2nc3c(s2)CN(C[C@H]2CC[C@@H](C(F)(F)F)CC2)C3C(C)C)cc1 (some centres unmarked)")
"> 1 µM"
>>> assay_result("CCS(=O)(=O)c1ccc(CC(=O)Nc2nc3c(s2)CN(C[C@@H]2CC[C@H](C(F)(F)F)O2)[C@H]3C(C)C)nc1 (single isomer, unassigned)")
"> 1 µM"
>>> assay_result("CCS(=O)(=O)c1ccc(CC(=O)Nc2nc3c(s2)CN(Cc2ccc(N)nc2)[C@H]3C(C)C)cc1")
"> 1 µM"
>>> assay_result("CC(C)[C@H]1c2nc(NC(=O)Cc3ccc(S(C)(=O)=O)cc3)sc2CN1[C@H](C)c1ccc(C#N)cc1Cl")
"0.1 to 1 µM"
>>> assay_result("CCS(=O)(=O)c1ccc(CNC(=O)c2nc3c(s2)CN(Cc2ccc(C(F)(F)F)nc2)[C@H]3C(C)C)cc1")
"0.1 to 1 µM"

Would you kindly share the measured IC50 for CCS(=O)(=O)c1ccc(CC(=O)Nc2nc3c(s2)CN(C[C@H]2CC[C@@](C)(C#N)CC2)[C@H]3C(C)C)nc1 (single isomer, unassigned) ?
0.1 to 1 µM

Would you kindly share the measured IC50 for CCS(=O)(=O)c1ccc(CC(=O)Nc2nc3c(s2)CN(C[C@H]2CC[C@@H](C(F)(F)F)OC2)[C@H]3C(C)C)cc1 (single isomer, unassigned) ?
> 1 µM

Would you kindly share the measured IC50 for CCS(=O)(=O)c1ccc(CC(=O)Nc2nc3c(s2)CN(Cc2ccc(C#N)c(F)c2)[C@@H]3C(C)C)cc1 ?
0.1 to 1 µM

Would you kindly share the measured IC50 for CCS(=O)(=O)c1cnc(CC(=O)Nc2nc3c(s2)CN(Cc2ccc(Cl)cc2)[C@H]3C(C)C)nc1 ?
0.1 to 1 µM

Would you kindly share the measured IC50 for CCS(=O)(=O)c1ccc(CC(=O)Nc2nc3c(s2)CN(Cc2ccc(F)cc2)[C@@H]3C(C)C)cc1 ?
> 1 µM
